test.method.notes: physchem
assay.conditions: aqueous with cosolvent or surfactant or cyclodextrin, thermodynamic from solid, 48 hrs Flecainide Acetate Solubility
result.type: solubility at 48 h (mg/mL)
Provide only the numeric value, understood in mg/mL.

Given O=C(NCC1CCCCN1)c1cc(OCC(F)(F)F)ccc1OCC(F)(F)F (stereo not shown) [flecainide acetate] , state its recorded solubility at 48 h.
110

---

test.method.notes: physchem
assay.conditions: water, thermodynamic from solid, solubility of flecainide acetate water solution
result.type: solubility

Param item = O=C(NCC1CCCCN1)c1cc(OCC(F)(F)F)ccc1OCC(F)(F)F (stereo not shown) [flecainide acetate] ; retrieve measured solubility.
~60 mg/mL

---

test.method.notes: Solubility of flecainide in D/L-lactic acid media
Assay type: physicochemical
assay.conditions: pure water with DL-lactic acid, aqueous buffer, thermodynamic from solid; no excipient (pure water), DL-lactic acid, 48 h, pH 6
result.type: solubility at 48 h (mg/mL)
Please respond with the number in mg/mL and leave the unit unwritten.

Param item = O=C(NCC1CCCCN1)c1cc(OCC(F)(F)F)ccc1OCC(F)(F)F (stereo not shown) [flecainide] ; retrieve measured solubility at 48 h.
73.4

---

test.method.notes: physchem
Format: physicochemical
assay.conditions: pH 5.5, aqueous with cosolvent or surfactant or cyclodextrin, Solubility (mg/mL)
result.type: solubility (mg/mL)
Numbers only; they are read as mg/mL.

For O=C(NCC1CCCCN1)c1cc(OCC(F)(F)F)ccc1OCC(F)(F)F (stereo not shown) [flecainide acetate] , what is its reported solubility?
69.7

---

test.method.notes: physchem
assay.conditions: aqueous buffer
result.type: solubility (mg/mL)
API: value field is a number in mg/mL; no unit string.

So what's the measured solubility for this one? O=C(NCC1CCCCN1)c1cc(OCC(F)(F)F)ccc1OCC(F)(F)F (stereo not shown) [flecainide acetate]
64

---

test.method.notes: FLE-002 (INSTANT) study: plasma levels of flecainide (Cmax)
Format: in vivo
assay.conditions: human, inhaled, 60 mg, oral inhalation, 60 mg eTLD, read-out: Cmax (mean ± SD)
result.type: Cmax (ng/mL)
Response body: numeric value in ng/mL, unit text excluded.

// lookup Cmax for O=C(NCC1CCCCN1)c1cc(OCC(F)(F)F)ccc1OCC(F)(F)F (stereo not shown) [flecainide]
199

---

test.method.notes: Solubility of flecainide in D/L-lactic acid media
Type: physicochemical
assay.conditions: pure water with DL-lactic acid, aqueous buffer, thermodynamic from solid; no excipient (pure water), DL-lactic acid, 24 h, pH 6.1
Method: D-lactic acid, L-lactic acid, or DL-lactic acid was slowly added portionwise to the suspension while stirring. The system was left to equilibrate for 30 minutes, and the pH was determined. The pH was then adjusted to 5.2-6 with NaOH if necessary. After addition of NaOH, the system was again left to equilibrate for 30 minutes before pH was measured. After the desired pH was achieved, the suspension was stirred (1000 rpm) at ambient temperature for 48 hours. […]
result.type: solubility at 24 h (mg/mL)
Your answer is read as mg/mL, so omit the unit and give the number.

Field request: solubility at 24 h | item: O=C(NCC1CCCCN1)c1cc(OCC(F)(F)F)ccc1OCC(F)(F)F (stereo not shown) [flecainide]
76.3

---

test.method.notes: Solubility of flecainide in D/L-lactic acid media
Type: physicochemical
assay.conditions: pure water with L-lactic acid, aqueous buffer, thermodynamic from solid; no excipient (pure water), L-lactic acid, 48 h, pH 5.1
result.type: solubility at 48 h (mg/mL)
Please reply with the bare figure in mg/mL and do not write the unit itself.

Requested read-out: solubility at 48 h. Entry: O=C(NCC1CCCCN1)c1cc(OCC(F)(F)F)ccc1OCC(F)(F)F (stereo not shown) [flecainide]
97.8
